Sourced from ChEMBL document CHEMBL3774342

Here the recorded IC50 is given for each entry.
- TARGET: Quinolone resistance protein NorA (Staphylococcus aureus, UniProt P0A0J7)
- Sequence (P0A0J7 whole entry): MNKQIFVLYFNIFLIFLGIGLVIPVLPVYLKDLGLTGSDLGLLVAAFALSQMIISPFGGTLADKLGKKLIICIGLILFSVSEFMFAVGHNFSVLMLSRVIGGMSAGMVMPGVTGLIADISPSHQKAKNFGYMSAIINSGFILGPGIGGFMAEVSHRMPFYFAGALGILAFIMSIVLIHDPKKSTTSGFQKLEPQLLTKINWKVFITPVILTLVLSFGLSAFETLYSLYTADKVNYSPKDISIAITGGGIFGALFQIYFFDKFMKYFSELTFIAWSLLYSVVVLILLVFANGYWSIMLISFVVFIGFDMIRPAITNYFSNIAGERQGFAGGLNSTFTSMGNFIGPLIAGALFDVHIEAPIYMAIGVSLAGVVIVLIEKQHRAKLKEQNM
- PROCEDURE_SUMMARY: Inhibition of NorA efflux pump in Staphylococcus aureus 1199B assessed as reduction in EtBr efflux incubated for 20 mins measured for 5 mins by real-time fluorometric analysis
MEASURED_METRIC: IC50 (µM)

• CCOC(=O)c1c(C)n(Cc2ccccc2)c2ccc(OCCCN3CCNCC3)cc12 = 12.5
• CCOC(=O)c1c(C)n(Cc2ccccc2)c2ccc(OCC(O)CN)cc12 (stereo not given) = 17.1
• CCOC(=O)c1c(C)n(Cc2ccccc2)c2ccc(OCCN3CCNCC3)cc12 = 15.5
• CCOC(=O)c1c(C)n(CCc2ccccc2)c2ccc(OCCCN3CCCCC3)cc12 = 13.7
• CCOC(=O)c1c(C)n(Cc2ccccc2[N+](=O)[O-])c2ccc(OCCCN3CCCCC3)cc12 = 6.3
• CCOC(=O)c1c(C)n(Cc2cccc(C(F)(F)F)c2)c2ccc(OCCCN3CCCCC3)cc12 = 14.2
• CCOC(=O)c1c(C)n(Cc2ccccc2OC)c2ccc(OCCCN3CCCCC3)cc12 = 5
• CCOC(=O)c1c(C)n(Cc2ccccc2)c2ccc(OCC(O)CN3CCCCC3)cc12 (stereo not given) = 5.8
• CCOC(=O)c1c(C)n(Cc2ccc(OC)cc2)c2ccc(OCCCN3CCCCC3)cc12 = 7.1
• CCOC(=O)c1c(C)n(Cc2ccccc2)c2ccc(OCCN3CCCCC3)cc12 = 11.6
